Where do the numbers come from? From patent US20040023887A1.

Readings of ratio over background for the listed binders
- system-under-test: T1, soluble human insulin receptor-immunoglobulin heavy chain chimera (human, UniProt P06213 28-956, limits assumed)
- T1 construct: extracellular domain; also called sIR-Fc; IR (prepared according to Bass et al., 1996); not shown: immunoglobulin heavy chain constant domains (Bass et al., 1996)
- assay-notes: phage ELISA
Report only the number, with the unit ratio understood.

Here's what some known entries look like.
[[record]]
binder = "MMVVDGFYDALHQLVVAQSLG (on phage) [20E2A-3-D10-IGFR]"
experimental_endpoint = "ratio over background"
reported_value = 1.8

[[record]]
binder = "RAGSSDFHEDFYEWFVRQVSLSLKGK (on phage) [H2CA-2-B9-IGFR]"
experimental_endpoint = "ratio over background"
reported_value = 1.7

[[record]]
binder = "PDLHKGFYAQLAQLIRGQLLS (on phage) [20E2B-3-E3-IGFR]"
experimental_endpoint = "ratio over background"
reported_value = 1.3

[[record]]
binder = "YSCGDGFYSLLSDLLGGQFRC (on phage) [20E22-4-H12-IGFR]"
experimental_endpoint = "ratio over background"
reported_value = 0.8

[[record]]
binder = "QPAPDGFYSALMKLIGRGGVS (on phage) [20E2B-3-C8-IGFR]"
experimental_endpoint = "ratio over background"
reported_value = 1.8

[[record]]
binder = "AICDAGFHEHFYDWFALQVSDCGRQS (on phage) [H2CA-2-B11-IGFR]"
experimental_endpoint = "ratio over background"
reported_value = 1.6


Request: Tell me ratio over background reported for GGTKAVAKVGTRDDPFYHKLSELLQGS (on phage) [B6Hα-4-G8-IR]
Result: 1.7
